Origin of the recorded values: ChEMBL document CHEMBL4602644

Tested on: MCF7
Test summary: Cytotoxicity against human MCF7 cells assessed as reduction in cell viability measured after 72 hrs by MTT assay
Format: functional, cell-based
Condition description: MCF7, 72 h
Quantity measured: IC50 (µM)
Numbers only here, please. The scale is µM.

What value of IC50 has been recorded for this entry: `C(=N\Nc1cnc2ccccc2n1)/c1ccccn1` 7

----------
Test system: K562
Test summary: Cytotoxicity against human K562 cells assessed as reduction in cell viability measured after 72 hrs by MTT assay
Format: functional, cell-based
Condition description: K562, 72 h
Quantity measured: pIC50
Scale for pIC50: -log10 of concentration given in mol/L; no unit attached.

What value of pIC50 has been recorded for this entry: `C(=N\Nc1cnc2ccccc2n1)/c1ccccn1` 5.58

----------
Tested on: L929
Test summary: Cytotoxicity against mouse L929 cells assessed as reduction in cell viability measured after 72 hrs by MTT assay
Format: cell-based
Condition description: L929, 72 h
Quantity measured: IC50 (µM)
Numbers only here, please. The scale is µM.

COc1cccc2c1C(=O)c1c(O)c3c(c(O)c1C2=O)C[C@@](O)(C(=O)CO)C[C@@H]3O[C@H]1C[C@H](N)[C@H](O)[C@H](C)O1 [DOXORUBICIN] :: 0.66

Now let's try a different one.
What value of IC50 has been recorded for this entry: `C(=N\Nc1cnc2ccccc2n1)/c1ccccn1` 2.27
